Each recorded value in this set is attributed to PubChem BioAssay AID330.

test system: P388 leukemia ip, CD2F1 mice, survival T/C; test: NCI In Vivo Anticancer Drug Screen. Data for tumor model P388 Leukemia (intraperitoneal) in CD2F1 (CDF1) mice; details: endpoint: median survival time; dose: 20.0 mg/kg/injection; schedule: Q01DX009 (ip); vehicle: saline with Tween-80; higher = longer survival
Inconclusive results and toxic doses are left out.
# reported T/C; entries follow

Field: example entries. Status: answers known.
| molecule | T/C |
| --- | --- |
| COC(=O)C1(C)CCCC2(C)c3cc(OC)ccc3C3(CC12)SCCS3 (stereo not given) | 99 % of control |
| NC1CCCCCCC1O (stereo not given) | 104 % of control |
| Clc1ccc(N=C/C=C\C=C/Nc2ccc(Cl)cc2)cc1 | 95 % of control |
| CC(=O)Nc1cc2c(cc1Br)-c1ccccc1C2O (stereo not given) | 90 % of control |

Okay, next one:
Q) Given the molecule `CN(CCC#N)c1ccc(/C=C(\C#N)C(N)=O)cc1` , what is its reported T/C?
A) 101 % of control
